Source of measurements: PubChem BioAssay (NCI)

- Test system: MDA-MB-435
- runDescription: NCI tumour cell line growth inhibition, 48 h
# TGI values compiled below

| compound | TGI |
| --- | --- |
| O=C(C[C@@H](C(=O)NCc1cccc(C(F)(F)F)c1)N1C(=O)[C@@H](N2C(=O)OC[C@@H]2c2ccccc2)[C@H]1/C=C/c1ccccc1)NC1CCN(Cc2ccccc2)CC1 | 7.66 µM |
| COc1ccc(-c2nc(-c3nc4ccc(C)cc4[nH]3)c3ccccn23)cc1 | 8.46 µM |
| Cc1cccc2c(N)c3cccc(C(=O)NCCCNCCN)c3nc12 | 29.1 µM |
| CC(=O)c1cccc2c1CC1(C2)Cc2ccc3c(c2C1=O)CCC3 (configuration not stated) | > 100 µM |
| COc1cc([C@@H]2c3cc4c(cc3C(O[C@@H]3O[C@@H]5CO[C@@H](c6cccs6)OC5[C@H](O)[C@H]3O)C3COC(=O)[C@@H]32)OCO4)cc(OC)c1O (some centres not stated) | 2.12 µM |
| O=C1C(Br)=CC2(C=C1Br)CCN=c1c(O)c3c(c(O)c12)=NC=N3 | 23.4 µM |
| CC(C)CC(N)C(=O)O (configuration not stated) | > 100 µM |

----------
- Test system: RXF-631 renal
- runDescription: NCI tumour cell line growth inhibition, 48 h
// reported TGI for each item listed

| molecule | targetDesc | TGI |
| --- | --- | --- |
| Nc1c(-c2ccc(Br)cc2)[n+]([O-])c2ccccc2[n+]1[O-] | RXF-631 renal | > 100 µM |
| COC(=O)CSc1n[nH]c(-c2ccc(O)c([N+](=O)[O-])c2)n1 | RXF-631 renal | > 100 µM |
| COC(=O)c1cc2c(c(C(=O)OC)c1O)C(=O)C=CC2=O | RXF-631 renal | > 71.2 µM |
| CCC1(O)C(=O)OCc2c1cc1n(c2=O)Cc2cc3c(N)cccc3nc2-1 (configuration not stated) | RXF-631 renal | 1.62 µM |
| C#CC[C@]12CC(=O)CC[C@H]1CC(=O)C2 | RXF-631 renal | > 100 µM |
| Cc1cc(C2CCCCC2)n(O)c(=O)c1 | RXF-631 renal | > 100 µM |
| CCCCCCCCCCCCCCCCOP(=O)(O)Oc1ccc(/C=C\c2ccc(OP(=O)(O)OCCCCCCCCCCCCCCCC)cc2)cc1 | RXF-631 renal | > 100 µM |

----------
- Tested on: CAKI-1 renal
- runDescription: NCI tumour cell line growth inhibition, 48 h; in the data active = GI50 below about 0.43 µM; inactive = the rest
Classes used: class 1 for active, class 0 for inactive

| smilesText | targetDesc | classAssignment |
| --- | --- | --- |
| COc1ccc(S(=O)(=O)N(Cc2ccc3c(n2)C=CC(C)(C)O3)C2CCC2)cc1OC | CAKI-1 renal | class 1 |
| Nc1nccc(-c2c(-c3ccc(F)cc3)ncn2CCCN2CCOCC2)n1 | CAKI-1 renal | class 0 |
| COc1cccc(N=Cc2c3ccccc3c(=O)n3c2oc2ccccc23)c1 | CAKI-1 renal | class 0 |
| COc1cc(C(=O)O[C@H](C(N)=O)[C@]2(C)CO2)c2ccccc2c1 | CAKI-1 renal | class 0 |

----------
- System: COLO 205 colon
- runDescription: NCI tumour cell line growth inhibition, 48 h

| compound | TGI |
| --- | --- |
| CC(=O)NNc1nc(C)c(C(/C=C/c2cccc([N+](=O)[O-])c2)=N/NC(=S)NN)s1 | > 100 µM |
| O=P(O)(O)CN1CCN(CP(=O)(O)O)CCN(CP(=O)(O)O)CCN(CP(=O)(O)O)CC1 | > 100 µM |
| CCCN(CCCCC(NC(C)=O)C(=O)NCc1ccccc1)C(=O)N(CCCl)N=O (stereo not given) | > 100 µM |
| Cc1oc2nc(N(C)C)nc(Cl)c2c1C | > 100 µM |
| CC1=C2C3=C(C)C(=O)C(C)(C)CC[C@@]3(C)[C@]2(C)CCC(C)(C)C1=O | > 100 µM |
| COc1cc2c(/C=C3/C(=O)Nc4cccc(Cl)c43)c(Cl)n(Cc3ccccc3)c2cc1C | 21.8 µM |
| COc1ccc(C(=O)O)c(Cc2cccc3ccccc23)c1 | > 100 µM |
| O=C(c1ccc(Cl)cc1Cl)N(C(=O)N1CCCCC1)c1ccccc1 | > 100 µM |
| CC(C(=O)O)c1cnn(-c2ccccc2)c1-n1cccc1 (stereo not given) | > 100 µM |
| COC(=O)c1ccc2c(c1)CC1(C2)Cc2cc3c(cc2C1=O)CCC3 (stereo not given) | 38.7 µM |
| C[C@]12CC[C@@H]3c4ccc(O)cc4C[C@@H](CCCCCCCCCS(=O)CCCC(F)(F)C(F)(F)F)[C@H]3[C@@H]1CC[C@@H]2O (stereo not given in full) | > 100 µM |
| Cc1ccccc1Nc1cn(COCc2ccccc2)c(=O)[nH]c1=O | > 100 µM |
| S=C(/N=c1/sc(Nc2ccccc2)nc2sc3c(c12)CCCC3)Nc1ccccc1 | > 62.5 µM |
| CCOC(=O)/C(O)=C(/C=NC(=S)c1ccncc1)C(=O)OCC | > 100 µM |
| Nc1c(-c2ccc(Br)cc2)[n+]([O-])c2ccccc2[n+]1[O-] | > 100 µM |
| CC(C)NC(=O)OCc1c(COC(=O)NC(C)C)c(-c2ccc[n+](COC(=O)CC(C)(C)C)c2)n2c1CCC2 | > 100 µM |
| CO/N=C(\C(=O)Nc1cncs1)c1csc(NC(c2ccccc2)(c2ccccc2)c2ccccc2)n1 | > 10 µM |
| COc1ccc(C(=O)/C=C/c2cccnc2Nc2cc(OC)c(OC)c(OC)c2)cc1 | 6.12 µM |
| CSc1ccc(C2C(Cl)C(=O)N2NC(=O)c2c(Cl)c(Cl)c(Cl)c(Cl)c2-c2nc3ccccc3[nH]2)cc1 (stereo not given) | 40.6 µM |
| NCCCCn1c2c(c3ccccc3c1=O)C(=O)c1ccccc1-2 | 11 µM |
